Tested on: purple nutsedge
Assay: Test F preemergence test
Assay type: in vivo, Cyperus rotundus
Details: Preemergence; 16 g ai/ha; scale 0 to 100
The reader will find reported Plant response rating, Purple Nutsedge values listed item by item below.
MEASURE: Plant response rating, Purple Nutsedge

1. Cn1nc(C(F)(F)F)c(C[S+]([O-])c2cccc[n+]2[O-])c1OC(F)F (centres unmarked) : 60
2. Cn1nc(C(F)(F)F)c(CS(=O)(=O)c2cccc[n+]2[O-])c1OCC(F)(F)F : 20
3. Cc1cc[n+]([O-])c([S+]([O-])Cc2c(C(F)(F)F)nn(C)c2Cl)c1 (racemic) : 0
4. Cc1cc[n+]([O-])c([S+]([O-])Cc2c(C(F)(F)F)nn(C)c2OCC(F)(F)F)c1 (racemic) : 0
5. Cc1cc[n+]([O-])c([S+]([O-])Cc2c(C(F)(F)F)nn(C)c2OC(F)F)c1 (centres unmarked) : 0

----------
The reader will find reported Galium plant response rating values listed item by item below.
Test system: catchweed bedstraw
Experiment: Test C pre-/postemergence test
Format: in vivo, Galium aparine
Settings: preemergence, 250 g ai/ha; scale 0 (no effect) to 100 (complete control)
MEASURE: Galium plant response rating

1. Cn1nc(C(F)(F)F)c(C[S+]([O-])c2ccc(Cl)c[n+]2[O-])c1OCC(F)(F)F (racemic) : 100
2. Cc1cc[n+]([O-])c(S(=O)(=O)Cc2c(C(F)(F)C(F)(F)F)nn(C)c2OCC(F)(F)F)c1 : 100
3. CCc1cc[n+]([O-])c([S+]([O-])Cc2c(C(F)(F)F)nn(C)c2OCC(F)(F)F)c1 (stereo not shown) : 100
4. CCc1cc[n+]([O-])c([S+]([O-])Cc2c(C(F)(F)F)nn(C)c2OC(F)F)c1 (stereo not shown) : 100
5. Cn1nc(C(F)(F)F)c(C[S+]([O-])c2ccc(Cl)c[n+]2[O-])c1OCC(F)F (stereo not shown) : 100
6. Cn1nc(C(F)(F)F)c(C[S+]([O-])c2ccc(F)c[n+]2[O-])c1OC(F)F (stereo not shown) : 100
7. Cn1nc(C(F)(F)F)c(C(Cl)S(=O)(=O)c2cccc[n+]2[O-])c1OC(F)F (stereo not shown) : 95
8. Cn1nc(C(F)(F)F)c(C(Cl)S(=O)(=O)c2cccc[n+]2[O-])c1OCC(F)(F)F (racemic) : 100
9. Cn1nc(C(F)(F)F)c(C[S+]([O-])c2cc(F)cc[n+]2[O-])c1Cl (racemic) : 100
10. CC(Oc1c(C[S+]([O-])c2cccc[n+]2[O-])c(C(F)(F)F)nn1C)C(F)(F)F (stereo not shown) : 100
11. CC(Oc1c(C[S+]([O-])c2ccc(Cl)c[n+]2[O-])c(C(F)(F)F)nn1C)C(F)(F)F (stereo not shown) : 100
12. C#CCOc1c(CS(=O)(=O)c2cccc[n+]2[O-])c(C(F)(F)F)nn1C : 100
13. Cn1nc(C(F)(F)F)c(C[S+]([O-])c2ccc(F)c[n+]2[O-])c1Cl (stereo not shown) : 85

----------
Tested on: wild oat
Experiment: Test C pre-/postemergence test
Type: in vivo, Avena fatua
Conditions: 125 g ai/ha, preemergence; scale 0 (no effect) to 100 (complete control)
Class (required): determined from Oat, Wild plant response rating; valid ranges are class 1 = under 60, class 2 = from 60 up to 90, class 3 = 90 and over

1. Cn1nc(C(F)(F)F)c(C[S+]([O-])c2cc(Br)cc[n+]2[O-])c1Cl (racemic) : class 2
2. Cn1nc(C(F)(F)F)c(C[S+]([O-])c2ccc(Cl)c[n+]2[O-])c1OCC(F)F (stereo not drawn) : class 2
3. Cc1cc[n+]([O-])c(S(=O)(=O)Cc2c(C(F)(F)F)nn(C)c2OCC(F)F)c1 : class 2
4. Cn1nc(C(F)(F)F)c(C(Cl)S(=O)(=O)c2cccc[n+]2[O-])c1OC(F)F (stereo not drawn) : class 1
5. C#CCOc1c(CS(=O)(=O)c2cccc[n+]2[O-])c(C(F)(F)F)nn1C : class 3
6. Cn1nc(OC(F)F)c(CS(=O)(=O)c2cccc[n+]2[O-])c1C(F)(F)F : class 3
7. Cn1nc(C(F)(F)F)c(C[S+]([O-])c2ccc(F)c[n+]2[O-])c1Cl (stereo not drawn) : class 1
8. Cn1nc(C(F)(F)C(F)(F)F)c(C[S+]([O-])c2cccc[n+]2[O-])c1OCC(F)(F)F (stereo not drawn) : class 2

----------
Test system: wheat
Experiment: Test C pre-/postemergence test
Format: in vivo, Triticum aestivum
Settings: Postemergence, 125 g ai/ha; scale 0 to 100, 0 no effect, 100 complete control
MEASURE: Plant response rating, Wheat

1) Cn1nc(C(F)(F)F)c(C[S+]([O-])c2ccc(F)c[n+]2[O-])c1OCC(F)(F)F (centres unmarked) : 70
2) Cn1nc(C(F)(F)F)c(C[S+]([O-])c2ccc(Cl)c[n+]2[O-])c1OC(F)F (centres unmarked) : 20
3) Cn1nc(C(F)(F)F)c(C[S+]([O-])c2ccc(F)c[n+]2[O-])c1OC(F)F (centres unmarked) : 20
4) CCn1nc(C(F)(F)F)c(CS(=O)(=O)c2cc(C)cc[n+]2[O-])c1OCC(F)(F)F : 65
5) Cn1nc(C(F)(F)F)c(C[S+]([O-])c2cccc[n+]2[O-])c1OC(F)F (centres unmarked) : 0
6) CC(c1c(C(F)(F)F)nn(C)c1Cl)S(=O)(=O)c1ccc(Cl)c[n+]1[O-] (racemic) : 0
7) CC(Oc1c(CS(=O)(=O)c2cccc[n+]2[O-])c(C(F)(F)F)nn1C)C(F)(F)F (centres unmarked) : 25
8) Cn1nc(C(F)(F)F)c(C[S+]([O-])c2cccc[n+]2[O-])c1OCC(F)(F)C(F)(F)F (centres unmarked) : 10

----------
The reader will find reported Crabgrass, Large plant response rating values listed item by item below.
Test system: crabgrass
Test: Test A pre-/postemergence greenhouse test
Format: in vivo, Digitaria sanguinalis
Settings: Postemergence, 125 g ai/ha; 0 to 100 scale, 0 is no effect, 100 is complete control
MEASURE: Crabgrass, Large plant response rating

1) Cn1nc(C(F)(F)F)c(C[S+]([O-])c2cc(F)cc[n+]2[O-])c1Cl (racemic) : 80
2) Cn1nc(C(F)(F)F)c(CS(=O)(=O)c2cc(Cl)cc[n+]2[O-])c1Cl : 0
3) Cn1nc(C(F)(F)F)c(C[S+]([O-])c2ccc(Br)c[n+]2[O-])c1OC(F)F (racemic) : 70
4) Cn1nc(C(F)(F)F)c(CS(=O)(=O)c2cccc[n+]2[O-])c1OCC(F)(F)F : 80
5) CC(c1c(C(F)(F)F)nn(C)c1Cl)S(=O)(=O)c1cccc[n+]1[O-] (stereo not shown) : 80
6) Cn1nc(C(F)(F)F)c(C[S+]([O-])c2cc(Br)cc[n+]2[O-])c1Cl (racemic) : 50
7) Cn1nc(C(F)(F)F)c(C(Cl)S(=O)(=O)c2ccc(Cl)c[n+]2[O-])c1Cl (racemic) : 20
8) Cn1nc(C(F)(F)F)c(C[S+]([O-])c2cccc[n+]2[O-])c1OC(F)F (stereo not shown) : 80
9) Cn1nc(C(F)(F)F)c(CS(=O)(=O)c2ccc(Br)c[n+]2[O-])c1OC(F)F : 0
10) Cn1nc(C(F)(F)F)c(C(Cl)S(=O)(=O)c2cccc[n+]2[O-])c1OCC(F)(F)F (racemic) : 50
11) Cc1cc[n+]([O-])c(S(=O)(=O)C(C)c2c(C(F)(F)F)nn(C)c2OC(F)F)c1 (stereo not shown) : 70
12) CC(c1c(C(F)(F)F)nn(C)c1OC(F)F)S(=O)(=O)c1cc(C(C)(C)C)cc[n+]1[O-] (racemic) : 20
13) Cc1cc[n+]([O-])c([S+]([O-])Cc2c(C(F)(F)F)nn(C)c2OCC(F)(F)F)c1 (racemic) : 70

----------
The reader will find reported Barnyardgrass plant response rating values listed item by item below.
Test system: barnyardgrass
Assay: Test A pre-/postemergence greenhouse test
Format: in vivo, Echinochloa crus-galli
Settings: Postemergence, 125 g ai/ha; 0 to 100 scale, 0 is no effect, 100 is complete control
MEASURE: Barnyardgrass plant response rating

1. Cc1cc[n+]([O-])c(S(=O)(=O)C(C)c2c(C(F)(F)F)nn(C)c2OC(F)F)c1 (centres unmarked) [Compound 11] : 70
2. Cn1nc(C(F)(F)F)c(CS(=O)(=O)c2cc(F)cc[n+]2[O-])c1Cl [Compound 41] : 0
3. CC(c1c(C(F)(F)F)nn(C)c1Cl)S(=O)(=O)c1cccc[n+]1[O-] (centres unmarked) [Compound 10] : 80
4. Cn1nc(C(F)(F)F)c(C[S+]([O-])c2ccc(Cl)c[n+]2[O-])c1Cl (racemic) [Compound 17] : 80
5. Cn1nc(C(F)(F)F)c(C[S+]([O-])c2cc(C(C)(C)C)cc[n+]2[O-])c1OC(F)F (racemic) [Compound 24] : 30
6. Cn1nc(C(F)(F)F)c(CS(=O)(=O)c2cccc[n+]2[O-])c1OC(F)F [Compound 4] : 70
7. Cn1nc(C(F)(F)F)c(C[S+]([O-])c2cccc[n+]2[O-])c1OCC(F)(F)F (racemic) [Compound 28] : 80
8. Cc1cc[n+]([O-])c(S(=O)(=O)Cc2c(C(F)(F)F)nn(C)c2OC(F)F)c1 [Compound 2] : 70
